TEST_SUMMARY: Binding affinity at TXA2/PGH2 receptor by measuring its ability to displace [3H]U-46619 from guinea pig platelets
REPORTED_PROPERTY: Ki (nM)
The reply should contain only the number, in nM.

Prompt: Request the reported Ki associated with O=C(O)c1ccc2c(c1)C(SCCNS(=O)(=O)c1ccccc1)c1ccccc1CO2 (stereo unspecified)
Response: 32

###

Organism: Cavia porcellus
TEST_SUMMARY: Compound was tested for its binding affinity at TXA2/PGH2 receptor by measuring its ability to displace [3H]U-46619 from guinea pig platelets at 0.1 uM
Consider the following compounds and their measured inhibition readings.
The reply should contain only the number, in %.

1) Cc1cc2ncn(C/C=C3\c4ccccc4COc4ccc(C(=O)N5CCOCC5)cc43)c2cc1C	-4
2) O=C(O)c1ccc2c(c1)C(SCCn1cnc3ccccc31)c1ccccc1CO2 (stereo not drawn)	9
3) O=C(O)c1ccc2c(c1)/C(=C/Cn1cnc3cnccc31)c1ccccc1CO2	-6
4) COC(=O)c1ccc2c(c1)/C(=C/Cn1cnc3cc(C)c(C)cc31)c1ccccc1CO2	31
5) Cc1cc2ncn(C/C=C3\c4ccccc4COc4ccc(C(=O)Nc5ccccc5C(=O)O)cc43)c2cc1C	6
6) O=C(O)c1ccc2c(c1)/C(=C\CCNS(=O)(=O)c1ccccc1)c1ccccc1CO2	50
7) Cc1nc2ccccc2n1C/C=C1\c2ccccc2COc2ccc(C(=O)O)cc21	4

Here's the next entry for you.
Prompt: Request the reported inhibition associated with O=C(O)c1ccc2c(c1)/C(=C/Cn1nnc3ccccc31)c1ccccc1CO2
Response: 35

###

TEST_SUMMARY: Binding affinity at TXA2/PGH2 receptor by displacement of [3H]U-46619 from human platelets
REPORTED_PROPERTY: pKi
Hey, just a heads up that pKi is the negative log base 10 of the concentration in molar.

1) COc1cc(OC)c2c(c1)ncn2C/C=C1\c2ccccc2COc2ccc(C(=O)O)cc21	8.17
2) COc1cc(OC)c2ncn(C/C=C3\c4ccccc4COc4ccc(C(=O)O)cc43)c2c1	8.04
3) Cc1cc2ncn(C/C=C3\c4ccccc4COc4ccc(C(=O)O)cc43)c2cc1C	8.92

Prompt: Request the reported pKi associated with O=C(O)c1ccc2c(c1)/C(=C/Cn1cnc3cc(C(F)(F)F)ccc31)c1ccccc1CO2
Response: 7.07

Prompt: Request the reported pKi associated with COc1cc2ncn(C/C=C3\c4ccccc4COc4ccc(C(=O)O)cc43)c2cc1OC
Response: 8.66

###

TEST_SUMMARY: Binding affinity at TXA2/PGH2 receptor by displacement of [3H]U-46619 from human platelets
REPORTED_PROPERTY: Ki (nM)
The reply should contain only the number, in nM.

1. O=C(O)c1ccc2c(c1)/C(=C/Cn1cnc3ccc([N+](=O)[O-])cc31)c1ccccc1CO2	9.1

Prompt: Request the reported Ki associated with O=C(O)c1ccc2c(c1)/C(=C/Cn1cnc3cc([N+](=O)[O-])ccc31)c1ccccc1CO2
Response: 9.2

Prompt: Request the reported Ki associated with Cc1ccc2ncn(C/C=C3\c4ccccc4COc4ccc(C(=O)O)cc43)c2c1
Response: 12

Prompt: Request the reported Ki associated with O=C(O)c1ccc2c(c1)/C(=C/Cn1cnc3cc4c(cc31)OCO4)c1ccccc1CO2
Response: 3.8

Prompt: Request the reported Ki associated with O=C(O)c1ccc2c(c1)/C(=C/Cn1cnc3cc(C(=O)NCc4ccccc4)ccc31)c1ccccc1CO2
Response: 7.4

Prompt: Request the reported Ki associated with O=C(O)c1ccc2c(c1)/C(=C/Cn1cnc3ccc(Cl)cc31)c1ccccc1CO2
Response: 19

Prompt: Request the reported Ki associated with Cc1cc(C)c2ncn(C/C=C3\c4ccccc4COc4ccc(C(=O)O)cc43)c2c1
Response: 7.6

Prompt: Request the reported Ki associated with Cc1cccc2ncn(C/C=C3\c4ccccc4COc4ccc(C(=O)O)cc43)c12
Response: 8

Prompt: Request the reported Ki associated with COc1ccc2ncn(C/C=C3\c4ccccc4COc4ccc(C(=O)O)cc43)c2c1
Response: 7.4

Prompt: Request the reported Ki associated with O=C(O)c1ccc2c(c1)/C(=C/Cn1cnc3ccc(C(=O)NCc4ccccc4)cc31)c1ccccc1CO2
Response: 14

Prompt: Request the reported Ki associated with Cc1ccc2c(c1)ncn2C/C=C1\c2ccccc2COc2ccc(C(=O)O)cc21
Response: 110

Prompt: Request the reported Ki associated with O=C(O)c1ccc2c(c1)/C(=C/Cn1cnc3cc(F)ccc31)c1ccccc1CO2
Response: 15

Prompt: Request the reported Ki associated with O=C(O)c1ccc2c(c1)/C(=C/Cn1cnc3cc(Cl)ccc31)c1ccccc1CO2
Response: 11

Prompt: Request the reported Ki associated with Cc1ccc2c(ncn2C/C=C2\c3ccccc3COc3ccc(C(=O)O)cc32)c1C
Response: 46

Prompt: Request the reported Ki associated with COc1ccc2c(c1)ncn2C/C=C1\c2ccccc2COc2ccc(C(=O)O)cc21
Response: 17

Prompt: Request the reported Ki associated with Cc1cccc2c1ncn2C/C=C1\c2ccccc2COc2ccc(C(=O)O)cc21
Response: 38
